Values compiled from the MegaScale stability set (Tsuboyama et al. 2023).

B1: 2K2A (parent)
chain: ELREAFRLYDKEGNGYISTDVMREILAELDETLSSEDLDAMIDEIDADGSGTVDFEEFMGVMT

variants of: B1; assay: folding stability dG (cDNA display proteolysis); higher = more stable; details: PBS, room temperature
This listing pairs variants with measured folding stability dG.
Field: numeric (kcal/mol). Do not append units.

[[record]]
mutation_label = "D20I"
units = "kcal/mol"
numeric_result = 2.03

[[record]]
mutation_label = "E44D"
units = "kcal/mol"
numeric_result = 1.76

[[record]]
mutation_label = "D37G"
units = "kcal/mol"
numeric_result = 1.15

[[record]]
mutation_label = "K11C"
units = "kcal/mol"
numeric_result = 2.07


Below: the item to evaluate.
Supply measured folding stability dG of `F6G` in your reply. -0.227
